Biological target: Bifunctional protein GlmU (Mycobacterium tuberculosis (strain ATCC 25618 / H37Rv)) (UniProt P9WMN3)
Sequence (P9WMN3 whole entry, looked up): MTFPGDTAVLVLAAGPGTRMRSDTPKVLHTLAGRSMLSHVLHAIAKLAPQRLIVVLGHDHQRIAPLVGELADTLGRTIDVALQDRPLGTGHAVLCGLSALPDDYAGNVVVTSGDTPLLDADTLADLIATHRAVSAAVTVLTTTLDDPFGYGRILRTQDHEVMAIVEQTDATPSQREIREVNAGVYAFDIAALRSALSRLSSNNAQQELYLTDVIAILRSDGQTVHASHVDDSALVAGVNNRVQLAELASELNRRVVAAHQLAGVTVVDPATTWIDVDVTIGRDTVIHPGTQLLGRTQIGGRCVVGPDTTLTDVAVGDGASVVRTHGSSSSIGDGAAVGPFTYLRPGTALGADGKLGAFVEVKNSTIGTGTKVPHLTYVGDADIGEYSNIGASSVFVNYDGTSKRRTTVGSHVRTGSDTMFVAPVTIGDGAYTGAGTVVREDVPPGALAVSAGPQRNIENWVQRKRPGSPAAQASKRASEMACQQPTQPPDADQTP
Assay: inhibition of mycobacterial GlmU enzyme – biochemical, glucosamine-1-phosphate acetyltransferase (AID 1376);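 also: 0% = complete reaction with vehicle and 100% = reaction without substrate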
Conditions: M. tuberculosis GlmU acetyltransferase enzyme assay; hits give high values;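 tested at 30 µM in the primary screen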
The whole screen tested about 220,000 compounds, of which about 530 (0.24%) were called active. This is one part of a sample in which actives are shown more often than they occur. Results with a measured potency or affinity are listed apart.
PARAMETER_MEASURED: inhibition (%)
Form entry: value (%) — number only.

Below: 3 molecules and their reported inhibition.
1) O=C(OC1Cn2c(=O)ccc(=O)n2C1)c1ccc([N+](=O)[O-])cc1 | 1.59
2) CC(Cc1ccsc1)NC(=O)CCc1nnc(COc2ccccc2)o1 (centres undefined) | -0.64
3) O=C1C(Cl)=C(Nc2ccccc2)C(=O)c2ccccc21 | -4.13

Exercise: Any idea what inhibition was measured for `O=C1c2cccnc2C(=O)N1C1CCCCC1` ?
Key: 6.11

Exercise: Which inhibition reading was recorded for the molecule `Cc1c(NC(=O)c2ccc(S(=O)(=O)N(C)c3ccccc3)cc2)c(=O)n(-c2ccccc2)n1C` ?
Key: -6.06

Exercise: Which inhibition value belongs to `O=C(CCSc1ccccc1)Nc1nnc(-c2ccccc2)o1` ?
Key: -1.24

Exercise: Bench note: what inhibition did `CCC(=O)N/C(=N/c1nc(C)cc(C)n1)Nc1ccc(OC)cc1` show?
Key: 7.87

Exercise: Give its inhibition value. Item: `COC(=O)Cc1ccc(NC(=S)NCCCO)cc1`
Key: 13.5

Exercise: If you can, please state the reported inhibition value of `COC(=O)Cc1ccc(NC(=S)NCCO)cc1` .
Key: -2
